# %Inh per record follows
Test system: CDK4-cyclinD1
Settings: concentration: 1 μM, replicates: in singlicate; n = 1;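 note: KINOMEscan kinase panel screen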
The answer is to be given in %; state only the numeric part.

O=C(c1ccc(-c2cc(-c3c[nH]nc3-c3ccccn3)ccn2)cc1)N1CCCC1
22
COC(=O)c1cccc(NC(=O)NCCNc2ccnc(Nc3ccc(F)cc3)n2)c1
0
CC(C)N1CCC(n2cnc(-c3ccc(F)cc3)c2-c2ccnc(N)n2)CC1
0
FC(F)(F)c1ccc(-c2cc(-c3c[nH]nc3-c3ccccn3)ccn2)cc1
11

Value lookup for %Inh; key = "O=c1cc(N2CCOCC2)nc2n(Cc3cccc(Cl)c3)ccn12"
0

Which %Inh is reported for this molecule? "Cc1cccc(-c2nc(Nc3ccc4[nH]nnc4c3)c3ccccc3n2)n1"
0

Which measured %Inh value corresponds to "CC(=O)Nc1n[nH]c2ncc(-c3ccccc3)cc12" ?
0

For the molecule "COc1cc2c(Nc3cccc(NC(=O)c4ccccc4)c3)ncnc2cc1OCCCN1CCOCC1" , what %Inh is on record?
0

Form field: reported %Inh of "COc1ccc(NC(=O)Nc2ccc(C)c(-c3ccc(C(=O)Nc4ccncc4)cc3)c2)cc1"
0

----------
System: YANK1
Construct: gene STK32A
Details: concentration: 1 μM, replicates: in singlicate; n = 1
observation_type: %Inh (%)
Response body: numeric value in %, unit text excluded.

// known answers, use as guide
CCC(CC)(CC)n1cnc2c(N)ncnc21
18
Cc1ccc(C)c(NC(=O)NCCNc2ccnc(Nc3ccc(F)cc3)n2)c1
0

Query (molecule): "Oc1ccc2ncnc(Nc3ccc(OCc4ccccc4)cc3)c2c1" ; field requested: %Inh
0

Fill in: %Inh of "CS(=O)(=O)CCNCc1ccc(-c2ccc3ncnc(Nc4ccc(OCc5ccccc5)c(Cl)c4)c3c2)o1.Cl" is ___
0

----------
System: p38-gamma
Construct: gene MAPK12
Conditions: concentration: 1 μM, replicates: in singlicate; n = 1
Would you please tag the item yes (1) when its %Inh is 20% or above, and no (0) when it is below?

Example entries begin here.
Nc1nccc2scc(-c3ccc4c(c3)CCN4C(=O)Cc3cc(F)ccc3F)c12 [GSK2587663]
no (0)
Fc1ccc(Nc2nccc(-c3c(-c4ccc(Cl)cc4)nn4ncccc34)n2)cc1F [GW829058]
yes (1)

Could you please find out whether Cc1ccc(NC(=O)c2cccc(C#N)c2)cc1-c1ccc(C(=O)Nc2ccncc2)cc1 [GSK1398463] has %Inh that meets 20% or exceeds it?
yes (1)

Could you verify whether the entry CS(=O)(=O)CCNCc1nc(-c2ccc3ncnc(Nc4ccc(OCc5cccc(F)c5)c(Cl)c4)c3c2)cs1.Cl [GW583340] shows %Inh of no less than 20%?
no (0)

Threshold query (%Inh >= 20%) on CSc1ccc(NC2=C(c3ccccc3Cl)C(=O)NC2=O)cc1 [SB-342411]
yes (1)

----------
// values below are reported %Inh
System: ZAK
Settings: concentration: 1 μM, replicates: in singlicate; n = 1
Kindly answer with a numeric value in %, unit omitted.

In the examples that follow, each entry is paired with its recorded %Inh.
C[C@@H]1CCN(C(=O)CO)C[C@@H]1N(C)c1ncnc2[nH]ccc12
7
Nc1nc(-c2ccccn2)c(-c2ccnc3ccccc23)s1 [GW548057]
0
C[C@H]1CC[C@@H](C(=O)Nc2ccccc2)CN1c1cc(-c2ccc3c(N)n[nH]c3c2)nc(N)n1 [GSK2283293]
2
O=C(Nc1n[nH]c2nc(-c3ccco3)c(Br)cc12)c1ccc(CN2CCCC2)cc1.O=C(O)[C@H](O)[C@@H](O)C(=O)O [SB-742352]
29
CS(=O)(=O)CCNCc1nc(-c2ccc3ncnc(Nc4ccc(OCc5cccc(F)c5)c(Cl)c4)c3c2)cs1.Cl [GW583340]
91.6
CCn1c(-c2ccncc2)nc2cnccc21 [SB-735216]
23
Clc1ccc(-c2cc(-c3c[nH]nc3-c3ccccn3)ccn2)cc1 [GW681251]
14
COC(=O)c1cccc(NC(=O)NCCNc2ccnc(Nc3ccc(F)cc3)n2)c1 [GSK1379883]
0
CNc1nccc(-c2c(-c3ccc(F)cc3)ncn2CCCN2CCOCC2)n1 [SB-222516]
6
Oc1ccc2ncnc(Nc3ccc(OCc4ccccc4)cc3)c2c1 [GI262866]
18

Notebook entry, ZAK assay: %Inh of Cl.Cn1ccc(-c2cccc(Nc3ccnc4cc(-c5nccs5)ccc34)c2)n1 [GW525701] = ?
0

// map CN1CCC(n2cnc(-c3ccc(F)cc3)c2-c2ccnc(NC3CCNCC3)n2)CC1 [SB-229482] to recorded %Inh (system: ZAK)
4

Look up %Inh with ZAK for this compound: "CCc1nc(-c2cccc(C)c2)c(-c2ccnc(NC(=O)c3ccccc3)c2)s1"
0

Missing value: %Inh, ZAK, entry FC(F)(F)c1cc(Nc2nccc(-c3c(-c4ccc(Cl)cc4)nn4ncccc34)n2)ccc1Cl [GW829351] . Fill in?
0

----------
System: CDK7
Settings: concentration: 1 μM, replicates: in singlicate; n = 1
observation_type: %Inh (%)
Write down the numeric answer in % and omit the unit.

CCc1nc(-c2cccc(C)c2)c(-c2ccnc(NC(=O)c3ccccc3)c2)s1
24

What value of %Inh has been reported for the following compound? CCCc1ccc(S(=O)(=O)NC2CCN(c3ccnc(Nc4ccc(OC)cc4)n3)C2)cc1 (centres unmarked) [GSK1379737]
0

Query (compound): COc1ccc(Nc2nccc(N3CCC(NC(=O)c4cccc(NC(C)=O)c4)C3)n2)cc1 (centres unmarked) [GSK1379732] ; field requested: %Inh
3

# get_value(readout='%Inh', item= Nc1n[nH]c2nnc(-c3ccccc3)cc12 [SB-517389] )
0

Any idea what its %Inh is? The compound is c1ccc(-c2ccc3c(-c4ccnc(Nc5ccc6c(c5)OCCO6)n4)cnn3n2)cc1 [GW818941]
0

Reported %Inh, compound CC(C)(C)c1ccc(-n2cnc3c(N)ncnc32)cc1 [SKF-97263] : ____
0

Reported %Inh for CSc1ccc(NC2=C(c3ccccc3Cl)C(=O)NC2=O)cc1 [SB-342411] : what is it?
43

Which %Inh value belongs to CC(=O)Nc1n[nH]c2ncc(-c3ccccc3)cc12 [SB-548492] ?
17

So what does the record say about %Inh for Cl.O=S(=O)(c1cccc(F)c1)c1ccc(Nc2ncnc3cc(Br)sc23)cc1Cl [GSK306886] ?
0

Can you look up the measured %Inh of CS(=O)(=O)CCNCc1nc(-c2ccc3ncnc(Nc4ccc(OCc5cccc(F)c5)c(Cl)c4)c3c2)cs1.Cl [GW583340] for me?
0

Fill blank: measured %Inh of the compound Fc1cccc(COc2ccc(Nc3ncnc4nn5ccccc5c34)cc2Cl)c1 [GW689066] is ____.
0

----------
We begin with a simple list: items and their reported %Inh.
Tested on: PLK2
Conditions: concentration: 1 μM, replicates: in singlicate; n = 1
Enter your answer as a number in %; do not include the unit.

c1ccc(-c2ccc3c(-c4ccnc(Nc5ccc6c(c5)OCCO6)n4)cnn3n2)cc1
0
O=C(c1ccc(-c2cc(-c3c[nH]nc3-c3ccccn3)ccn2)cc1)N1CCCC1
0
CC(C)N1CCC(n2cnc(-c3ccc(F)cc3)c2-c2ccnc(N)n2)CC1
0
O=C(CCO)NCCn1ccc2ncnc(Nc3ccc(Oc4cccc(C(F)(F)F)c4)c(Cl)c3)c21
0
Clc1ccc(-c2cc(-c3c[nH]nc3-c3ccccn3)ccn2)cc1
0
CCC(CC)(CC)n1cnc2c(N)ncnc21
32

Fill in the blank: the reported %Inh of "Cc1ccc(C)c(NC(=O)NCCNc2ccnc(Nc3ccc(F)cc3)n2)c1" is ____.
0

Field request: %Inh | item: "COc1ccc(NC(=O)Nc2ccc(C)c(-c3ccc(C(=O)Nc4ccncc4)cc3)c2)cc1"
0

----------
Test system: EPHA4
Settings: concentration: 1 μM, replicates: in singlicate; n = 1
observation_type: %Inh (%)
The reply should be a number in %, with the unit left off.

Study these solved cases before continuing.
FC(F)(F)c1ccc(-c2cc(-c3c[nH]nc3-c3ccccn3)ccn2)cc1 [GW599550]
0
Cc1ccc(C)c(NC(=O)NCCNc2ccnc(Nc3ccc(F)cc3)n2)c1 [GSK1379878]
0
O=C(CCO)NCCn1ccc2ncnc(Nc3ccc(Oc4cccc(C(F)(F)F)c4)c(Cl)c3)c21
0

I'd like to know its %Inh. The compound in question is Oc1ccc2ncnc(Nc3ccc(OCc4ccccc4)cc3)c2c1 [GI262866]
6

Recorded %Inh of Nc1nc(-c2ccc3c(N)n[nH]c3c2)cc(N2CCCCC2)n1 [GSK2228768] , please.
3

----------
Test system: WEE2
Conditions: concentration: 1 μM, replicates: in singlicate; n = 1
Overview of recorded %Inh for various compounds
The figure you give is taken to be in %; do not add the unit.

Recorded %Inh, per entry:
CSc1ccc(NC2=C(c3ccccc3Cl)C(=O)NC2=O)cc1
0
COc1ccc(NC(=O)Nc2ccc(C)c(-c3ccc(C(=O)Nc4ccncc4)cc3)c2)cc1
11
CCC(CC)(CC)n1cnc2c(N)ncnc21
6
Cl.O=S(=O)(c1cccc(F)c1)c1ccc(Nc2ncnc3cc(Br)sc23)cc1Cl
9

Continue with the next compound.
Request the reported %Inh associated with "OCCOCCn1ccc2ncnc(Nc3ccc(Oc4cccc(Cl)c4)c(Cl)c3)c21"
0
